test_name: absorption spectrum (maximum absorption wavelength, molar extinction coefficient)
Type: physicochemical
Quick reference for molar extinction coefficient among some molecules
measurement_name: molar extinction coefficient

>>> val("COCCOCCOCCOCCOCCOCCOCCOCCOCCOCCOCCOCCOC(=O)C1CCC(Nc2c3c4c5c(c(OC)c(=O)c6c(O)cc(OC)c(c7c(OC)cc(NC8CCC(C(=O)OCCOCCOCCOCCOCCOCCOCCOCCOCCOCCOCCOCCOC)C8)c(c2=O)c74)c65)C(C(C)=O)C(C)=C3)C1 (stereo not drawn) [HB-19c-PEG12]")
"33,500 M^−1cm^−1"
>>> val("COc1c(O)c2c(=O)cc(OC)c3c4c(OC)cc(=O)c5c(NC(CC(=O)O)C(=O)O)c(NC(CC(=O)O)C(=O)O)c6c(c(c1C(C(C)=O)C(C)=C6)c23)c54 (stereo not drawn) [HB-27a]")
"20,500 M^−1cm^−1"
>>> val("COc1c2c3c4c(c(NCCS(=O)(=O)OC)c(=O)c5c(NCCS(=O)(=O)OC)cc(OC)c(c6c(OC)cc(O)c(c1=O)c63)c54)C=C(C)C2C(C)=O (stereo not drawn) [HB-12c]")
"23,500 M^−1cm^−1"

====

Quick reference for maximum absorption wavelength among some compounds
test_name: absorption spectrum (maximum absorption wavelength, molar extinction coefficient)
Assay type: physicochemical
measurement_name: maximum absorption wavelength

>>> val("COc1c(O)c2c(=O)cc(OC)c3c4c(OC)cc(=O)c5c(NCC(=O)O)c(NCC(=O)O)c6c(c(c1CC(C)=C6)c23)c54")
"620 nm"
>>> val("COCCOCCC(=O)OCCOCCNc1c(NCCOCCOC(=O)CCOCCOC)c2c(=O)cc(OC)c3c4c(OC)cc(=O)c5c(O)c(OC)c6c(c(c1C=C(C)C6C(C)=O)c23)c54 (stereo not drawn)")
"625 nm"
>>> val("C=Cc1c(C)c2cc3nc(c(CC(=O)O)c4[nH]c(cc5nc(cc1[nH]2)C(C)=C5CC)c(C)c4C(=O)O)[C@@H](CCC(=O)O)[C@@H]3C [Ce6, reference compound]")
"650 nm"
>>> val("COCCOCCNc1c(NCCCC(=O)O)c2c3c4c(c(OC)c(O)c5c(=O)cc(OC)c(c6c(OC)cc(=O)c1c63)c54)C(C(C)=O)C(C)=C2 (stereo not drawn) [HB-47a-PEG1]")
"622 nm"
>>> val("COc1c2c3c4c(c(NCC(=O)O)c(=O)c5c(NCC(=O)O)cc(OC)c(c6c(OC)cc(O)c(c1=O)c63)c54)C=C(C)C2")
"630 nm"
>>> val("CCNNc1c2c3c4c(c(OC)c(=O)c5c(O)cc(OC)c(c6c(OC)cc(NNCC)c(c1=O)c63)c54)C(C(C)=O)C(C)=C2 (stereo not drawn) [HB-36c]")
"621 nm"

====

test_name: absorption spectrum (maximum absorption wavelength, molar extinction coefficient)
Assay type: physicochemical
Quick reference for molar extinction coefficient among some compounds
measurement_name: molar extinction coefficient

>>> val("COc1c2c3c4c(c(NCCO)c(=O)c5c(O)cc(OC)c(c6c(OC)cc(NCCO)c(c1=O)c63)c54)C=C(C)C2 [HC-2d]")
"28,500 M^−1cm^−1"
>>> val("COc1c2c3c4c(c(NCCCC(=O)NCCCCS(=O)(=O)O)c(=O)c5c(O)cc(OC)c(c6c(OC)cc(NCCCC(=O)NCCCCS(=O)(=O)O)c(c1=O)c63)c54)C=C(C)C2 [HC-8d-NH—C4-SO3H]")
"30,500 M^−1cm^−1"
>>> val("COc1c2c3c4c(c(NC5CCC(C(=O)O)C5)c(=O)c5c(O)cc(OC)c(c6c(OC)cc(NC7CCC(C(=O)O)C7)c(c1=O)c63)c54)C=C(C)C2C(C)=O (centres unmarked) [HB-19d]")
"24,000 M^−1cm^−1"
>>> val("COCCOCCOCCOCCOCCOCCOC(=O)CCCNc1c2c3c4c(c(OC)c(=O)c5c(NCCCC(=O)OCCOCCOCCOCCOCCOCCOC)cc(OC)c(c6c(OC)cc(O)c(c1=O)c63)c54)CC(C)=C2 [HC-8d-PEG6]")
"31,500 M^−1cm^−1"
>>> val("COc1c(O)c2c(=O)cc(OC)c3c4c(OC)cc(=O)c5c(NC6CCC(O)C6)c(NC6CCC(O)C6)c6c(c(c1C(C(C)=O)C(C)=C6)c23)c54 (centres unmarked) [HB-20a]")
"24,500 M^−1cm^−1"

====

test_name: absorption spectrum (maximum absorption wavelength, molar extinction coefficient)
Format: physicochemical
measurement_name: maximum absorption wavelength (nm)

>>> val("COCCOCCOCCOCCOCCOCCOCCOCCOCCNC(=O)C1CCC(CNc2c3c4c5c(c(OC)c(=O)c6c(O)cc(OC)c(c7c(OC)cc(NCC8CCC(C(=O)NCCOCCOCCOCCOCCOCCOCCOCCOCCOC)CC8)c(c2=O)c74)c65)CC(C)=C3)CC1 (stereo not drawn) [HC-13c-NH-PEG8]")
630
>>> val("COCCOC(=O)CCCNc1c(NCCCC(=O)OCCOC)c2c(=O)cc(OC)c3c4c(OC)cc(=O)c5c(O)c(OC)c6c(c(c1C=C(C)C6C(C)=O)c23)c54 (stereo not drawn) [HB-8a-PEG1]")
621
>>> val("COCCOCCC(=O)N1CCC(CNc2c(NCC3CCN(C(=O)CCOCCOC)CC3)c3c(=O)c(Br)c(OC)c4c5c(OC)cc(=O)c6c(O)c(OC)c7c(c(c2C=C(C)C7C(C)=O)c34)c65)CC1 (stereo not drawn) [HB-31a-Br-PEG1]")
624

====

test_name: absorption spectrum (maximum absorption wavelength, molar extinction coefficient)
Type: physicochemical
measurement_name: maximum absorption wavelength (nm)

>>> val("COCCOCCC(=O)OCCOCCNc1c2c3c4c(c(OC)c(=O)c5c(O)cc(OC)c(c6c(OC)cc(NCCOCCOC(=O)CCOCCOC)c(c1=O)c63)c54)C(C(C)=O)C(C)=C2 (stereo not drawn)")
626
>>> val("COc1c2c3c4c(c(NCCS(=O)(=O)OC)c(=O)c5c(NCCS(=O)(=O)OC)cc(OC)c(c6c(OC)cc(O)c(c1=O)c63)c54)C=C(C)C2C(C)=O (stereo not drawn) [HB-12c]")
622
>>> val("COCCOCCOCCOCCOCCOCCOCCN1CCC(CNc2c(O)c3c(=O)cc(OC)c4c5c(OC)cc(=O)c6c(NCC7CCN(CCOCCOCCOCCOCCOCCOCCOC)CC7)c(OC)c7c(c(c2C=C(C)C7C(C)=O)c34)c65)CC1 (stereo not drawn) [HB-32b-PEG6]")
622
>>> val("CCCCCCNc1c(O)c2c(=O)cc(OC)c3c4c(OC)cc(=O)c5c(NCCCCCC)c(OC)c6c(c(c1C=C(C)C6)c23)c54 [HC-34b]")
620
>>> val("COc1c2c3c4c(c(NC5CCCC(C(=O)O)C5)c(=O)c5c(NC6CCCC(C(=O)O)C6)cc(OC)c(c6c(OC)cc(O)c(c1=O)c63)c54)C=C(C)C2C(C)=O (stereo not drawn) [HB-15c]")
621
>>> val("COc1c2c3c4c(c(NC(CS)C(=O)O)c(=O)c5c(O)cc(OC)c(c6c(OC)cc(NC(CS)C(=O)O)c(c1=O)c63)c54)C=C(C)C2C(C)=O (stereo not drawn) [HB-25d]")
630

====

test_name: absorption spectrum (maximum absorption wavelength, molar extinction coefficient)
Assay type: physicochemical
measurement_name: molar extinction coefficient

>>> val("COCCOCCOCCOCCOCCOCCOC(=O)C1CCCCC1Nc1c2c3c4c(c(OC)c(=O)c5c(NC6CCCCC6C(=O)OCCOCCOCCOCCOCCOCCOC)cc(OC)c(c6c(OC)cc(O)c(c1=O)c63)c54)C(C(C)=O)C(C)=C2 (centres unmarked) [HB-16d-PEG6]")
"32,000 M^−1cm^−1"
>>> val("COCCOCCOCCOCCOCCOCCOCCN1CCC(CNc2c3c4c5c(c(OC)c(=O)c6c(O)cc(OC)c(c7c(OC)cc(NCC8CCN(CCOCCOCCOCCOCCOCCOCCOC)CC8)c(c2=O)c74)c65)C(C(C)=O)C(C)=C3)CC1 (centres unmarked) [HB-32c-PEG6]")
"33,500 M^−1cm^−1"
>>> val("COc1c(O)c2c(=O)cc(OC)c3c4c(OC)cc(=O)c5c(NCc6cccc[n+]6CCCC(=O)O)c(NCc6cccc[n+]6CCCC(=O)O)c6c(c(c1C(C(C)=O)C(C)=C6)c23)c54 (centres unmarked) [HB-38a-N—COOH]")
"22,000 M^−1cm^−1"
>>> val("COc1c2c3c4c(c(NCC[N+]56CC[N+](C)(CC5)CC6)c(=O)c5c(O)cc(OC)c(c6c(OC)cc(NCC[N+]78CC[N+](C)(CC7)CC8)c(c1=O)c63)c54)C=C(C)C2C(C)=O (centres unmarked) [HB-41d]")
"30,500 M^−1cm^−1"
>>> val("COCCOCCOCCOCCOCCOCCOCCOCCOCCOCCOCCOCCOC(=O)C1CCC(Nc2c3c4c5c(c(OC)c(=O)c6c(O)cc(OC)c(c7c(OC)cc(NC8CCC(C(=O)OCCOCCOCCOCCOCCOCCOCCOCCOCCOCCOCCOCCOC)CC8)c(c2=O)c74)c65)C(C(C)=O)C(C)=C3)CC1 (centres unmarked) [HB-14c-PEG12]")
"33,500 M^−1cm^−1"
